The reported numbers originate from PubChem BioAssay.

experiment: hepatitis C replication reporter changes, two-sided – Huh7 cells, luciferase reporter, HCV replication inhibitor project, primary screen (AID 1109); conditions: Huh7 HCV replicon luciferase reporter, 48 h; higher = more signal;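 note: huh7 hepatoma cells harbouring a luciferase neomycin HCV replicon reporter; luciferase luminescence as measure of HCV replicon replication; test concentration not given here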
Kind request: treat -0.1 as inclusive, so z-score at -0.1 or higher is fulfilled, anything lower is not fulfilled.

compound	labelClass
CCCCCN1CC=CC23O[C@@H]4C=CCCOC(=O)C4[C@H]2C(=O)N(CCCCCCO)[C@@H]3C1=O (stereo partly specified)	fulfilled
CCOC(=O)C1=C[C@@H](C(C)(C)C)N(S(=O)(=O)c2ccc(C)cc2)[C@H]1c1cccc2ccccc12	not fulfilled
C=CC[C@@H](OC(=O)Nc1ccc(OC)cc1)c1ccc(O)c(F)c1	not fulfilled
CN(C)c1ccc(C(O)C2C=CC3C(=O)NC(=O)C3N2Nc2ccccn2)cc1 (stereo unspecified)	not fulfilled
CCCNC(=O)[C@@]1(C)c2ccccc2C(=O)N(c2ccc(C)cn2)[C@H]1c1ccc(CO)cc1	fulfilled
COc1ccccc1CN1C(=O)c2ccccc2[C@](Cc2ccccc2I)(C(=O)O)[C@@H]1c1ccc(CO)cc1	not fulfilled
CCCCCCCCCCC(O)C1C=CC2C(=O)N(c3ccccc3)C(=O)C2N1Nc1ccc(C#N)cc1 (stereo unspecified)	not fulfilled
CCCCCCc1nc(Cc2cc(OC)c(OC)c(OC)c2)cc2c1[Si](C(C)C)(C(C)C)OC2	not fulfilled
CCCCCCCCCC(O)C1C=CC2C(=O)N(c3ccccc3)C(=O)C2N1Nc1cc(OC)c(OC)c(OC)c1 (stereo unspecified)	not fulfilled
CC1=C2[C@@H](CCc3ccccc3)OB(O)C[C@@H]2[C@@H]2C(=O)N(C)C(=O)[C@@H]2C1	not fulfilled
O=C(O)[C@@H]1[C@@H]2C(=O)N(c3ccccc3)C(=O)[C@@H]2C[C@@H]1Sc1ccccc1	fulfilled
COC(=O)c1c(CC[C@@H](CO)NC(=O)N2CCC[C@H]2Cn2cc(C3(O)CCCCC3)nn2)oc(C(C)=O)c1C(=O)OC	not fulfilled
COCCOC(=O)N1C(=O)[C@@]2(c3cc(C#CC4(O)CCCCCC4)ccc31)[C@H](C(=O)N1CCc3cc(OC)c(OC)cc3C1)[C@H]1C(=O)O[C@H](c3ccccc3)[C@H](c3ccccc3)N1[C@@H]2c1ccc(OCCO)cc1	not fulfilled
CCOC(=O)C[C@H]1[C@H](OC(=O)c2ccc(C(=O)c3ccccc3)cc2)[C@@H](NC(=O)c2ccc3ccccc3n2)c2cc(OCCCO)ccc2N1C(=O)Cc1ccc(OC)cc1	fulfilled
CC(C)C(CO)N1C(=O)[C@@H]2C3C(=O)OCCC/C=C\[C@H]3OC23C=CCN(Cn2nnc4ccccc42)C(=O)[C@@H]13 (stereo partly specified)	fulfilled
CCOC(=O)C1=CC[C@@H](c2ccccc2)N(S(=O)(=O)c2ccc(C)cc2)[C@H]1c1ccccc1	not fulfilled

----------
molecular target: Epidermal growth factor receptor (Homo sapiens) (UniProt P00533); test: compounds binding epidermal growth factor receptor – biochemical, small-molecule microarray, 635 nm fluorescence, primary screen (AID 1104); settings: EGFR binding, higher = more signal;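 note: score merges 667 nm emission intensity with spot signal to noise over triplicate slides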
Sequence (P00533 whole entry, looked up): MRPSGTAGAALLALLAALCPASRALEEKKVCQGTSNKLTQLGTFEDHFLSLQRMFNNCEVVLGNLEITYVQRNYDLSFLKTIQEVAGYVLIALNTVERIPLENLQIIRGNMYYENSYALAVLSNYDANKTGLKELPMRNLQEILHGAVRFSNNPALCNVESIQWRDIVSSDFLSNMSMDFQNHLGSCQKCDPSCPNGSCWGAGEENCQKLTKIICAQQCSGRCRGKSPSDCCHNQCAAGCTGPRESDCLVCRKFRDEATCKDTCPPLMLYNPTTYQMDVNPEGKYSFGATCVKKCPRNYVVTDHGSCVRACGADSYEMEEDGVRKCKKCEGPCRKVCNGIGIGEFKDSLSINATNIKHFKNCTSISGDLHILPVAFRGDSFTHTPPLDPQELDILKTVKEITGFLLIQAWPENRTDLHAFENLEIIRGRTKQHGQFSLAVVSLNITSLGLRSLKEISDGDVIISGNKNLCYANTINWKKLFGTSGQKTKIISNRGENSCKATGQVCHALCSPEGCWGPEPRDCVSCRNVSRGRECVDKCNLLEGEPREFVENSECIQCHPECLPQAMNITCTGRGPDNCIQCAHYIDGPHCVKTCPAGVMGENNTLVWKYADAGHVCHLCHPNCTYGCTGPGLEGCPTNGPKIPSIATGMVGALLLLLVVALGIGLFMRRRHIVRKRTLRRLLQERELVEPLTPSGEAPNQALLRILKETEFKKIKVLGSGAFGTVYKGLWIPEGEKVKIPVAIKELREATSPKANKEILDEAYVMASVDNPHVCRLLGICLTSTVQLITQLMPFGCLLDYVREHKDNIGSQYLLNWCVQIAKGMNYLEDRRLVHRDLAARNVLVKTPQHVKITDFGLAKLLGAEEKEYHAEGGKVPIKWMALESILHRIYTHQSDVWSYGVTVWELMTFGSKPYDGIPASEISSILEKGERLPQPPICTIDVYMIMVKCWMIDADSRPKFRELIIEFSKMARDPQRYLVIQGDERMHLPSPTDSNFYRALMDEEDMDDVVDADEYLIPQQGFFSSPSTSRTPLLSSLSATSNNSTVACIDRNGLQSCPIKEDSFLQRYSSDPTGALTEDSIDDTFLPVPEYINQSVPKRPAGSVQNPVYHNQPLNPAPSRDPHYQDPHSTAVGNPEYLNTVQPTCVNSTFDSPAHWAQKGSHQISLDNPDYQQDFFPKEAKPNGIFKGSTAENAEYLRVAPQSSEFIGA
Kind request: treat -0.2 as inclusive, so composite z-score at -0.2 or higher is satisfied, anything lower is not satisfied.

compound	labelClass
CC(=O)NCCCC[C@@H]1NC(=O)[C@@H]2C[C@H](C(=O)NCCCCCN)[C@H](c3ccc(O)cc3)N2C1=O	satisfied
CCCC[C@@H](O)C1=C(COC)C[C@H]2C(=O)N(C)C(=O)[C@H]2[C@H]1CO	satisfied
C=CCN1C(=O)[C@]2(CCS(=O)(=O)c3ccccc3)N=C(c3ccc(OCCCO)cc3)O[C@@H]2c2ccccc21	satisfied
CCCNC(=O)[C@@]1(Sc2ccc(C)cc2)CC(=O)N(C2Cc3ccccc3C2)[C@@H]1c1ccc(CO)cc1I	satisfied
COC(=O)C1=CC(CCCO)=CC(c2cccs2)N(C)C=C1C(=O)OC (stereo not drawn)	not satisfied
C=CCC(OC(C)=O)[C@@H]1[C@@H](N(Cc2ccc(-c3cccc(C(F)(F)F)c3)o2)C(=O)c2ccc(-c3ccccc3)cc2)c2cc(OCCCO)ccc2N1C(=O)Cc1ccc2ccccc2c1 (stereo partly drawn)	not satisfied
NCCCCCNC(=O)[C@H]1C[C@H]2C(=O)N3CCC[C@H]3C(=O)N2[C@H]1c1cccc(OCCO)c1	not satisfied
COc1ccc([Si](C)(C)[C@H]2[C@H](CC(=O)N3Cc4ccccc4C[C@H]3CO)O[C@@]3(C(=O)N(Cc4ccc(N5CCOC5=O)cc4)c4ccccc43)[C@@H]2C)cc1	satisfied
